Test: CMV-Luciferase Counterscreen for Inhibitors of ATXN expression; note: nearly all actives have a fitted effect of over 55% in size
Conditions: HEK-293 CMV-luciferase reporter, luminescence, 24 h; series mostly up to 57.5 µM
In all, about 2,100 compounds went through this assay and about 670 (32%) were called active. About 50% were inconclusive and are not listed. Calls come from the whole dose curve; as a rule, active = well fitted inhibition curve with a large enough effect; inconclusive = small, poorly fitted or top-dose-only effect; inactive = no such curve, though single readings can be large or run the other way. This is one part of the list.
Thanks in advance; please answer with one of these: active, inactive

Problem: Called result for CC1CCCN(c2ncnc3c2cnn3-c2ccc(Cl)cc2)C1 (stereo unspecified)
Solution: active

Problem: Called result for Fc1ccc2[nH]c3c(N4CCc5ccccc5C4)ncnc3c2c1
Solution: active

Problem: Called result for O=C1C=C(NCCc2cc(Br)c(O)c(Br)c2)C(=O)c2ncccc21
Solution: active

Problem: Called result for OC(c1cc(-c2cccc(Cl)c2)nc2ccccc12)C1CCCCN1 (stereo unspecified)
Solution: active

Problem: Called result for Cc1c(N/N=C(\C#N)C(=O)c2ccccc2)c(=O)n(-c2ccccc2)n1C
Solution: active

Problem: Called result for CC(C)CC(NC(=O)c1ccc(Cl)cc1)C(=O)OCC(=O)c1ccc2c(c1)NC(=O)CO2 (stereo unspecified)
Solution: active

Problem: Called result for O=C(CP(=O)(c1ccccc1)c1ccccc1)N/N=C/c1cc(Br)cc(Br)c1O
Solution: active

Problem: Called result for O=C(N/N=C\c1c(O)ccc2ccccc12)c1cncc(Br)c1
Solution: active

Problem: Called result for O=C(CCN1CCN(c2ccccc2)CC1)N/N=C/c1ccccc1O
Solution: active

Problem: Called result for COc1ccc(-n2c(-c3ccc(Cl)cc3)c[n+]3c2CCCCC3)cc1
Solution: active

Problem: Called result for CC(C)Nc1nc(-c2ccccn2)nc(-c2ccccc2)c1C#N
Solution: inactive

Problem: Called result for CN(Cc1ccccc1)C(=O)c1ccc(NC(=O)C2CCN(C(=O)OC(C)(C)C)CC2)cc1
Solution: active

Problem: Called result for Fc1ccc2[nH]c3c(N4CCSCC4)ncnc3c2c1
Solution: active

Problem: Called result for CCOC(=O)N1CCN(c2ncnc3c2[nH]c2ccc(F)cc23)CC1
Solution: active

Problem: Called result for COc1cc2c3nnc(-c4ccc(F)cc4)c-3cn(Cc3ccc(C)cc3)c2cc1OC
Solution: inactive

Problem: Called result for Cc1cc(N2CCN(C)CC2)ccc1NC(=O)c1ccc(-c2ccc(Cl)cc2)o1
Solution: inactive

Problem: Called result for O=C(Nc1ccc(Cl)cc1)Nc1nc(-c2sccc2Br)cs1
Solution: inactive

Problem: Called result for CCC(=O)NC(c1ccc(OC)c(OC)c1)c1cc(Cl)c2cccnc2c1O (stereo unspecified)
Solution: active

Problem: Called result for Cn1cc(/C=C/c2cc[n+](C)cc2)c2cc(F)ccc21
Solution: active

Problem: Called result for CCOC(=O)c1cnc(-n2nc(C)cc2C)nc1NC1CCCC1
Solution: active

Problem: Called result for Cc1ccc(SCCC(=O)N/N=C/c2ccccc2O)cc1
Solution: active
